test-system: S. pyogenes SKKanGAS, kanamycin survival, BacTiterGlo, 6 h
assay-name: S. pyogenes SKKanGAS kanamycin growth inhibitors – SKKanGAS strain, luminescence, dose confirmation, streptokinase promoter inhibitor project, dose response (AID 1902);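 also: lower survival reflects blocked streptokinase promoter driving kanamycin resistance gene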
Activity calls are given as the source filed them.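 The calls were made as follows: active = EC50 no more than a set limit of log units above the highest dose; inactive = the rest.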
measure-name: EC50

• Nc1ccc(-c2cn3cccnc3n2)cc1 = > 15 µM (inactive)
• COC(=O)c1c(NC(=O)c2ccn(C)n2)sc2c1CCC2 = > 15 µM (inactive)
• O=C(COc1cccc(Oc2ccccc2)c1)Nc1ccc(SC(F)F)cc1 = 13 µM
• COCC1=C(C(=O)OC(C)OC(=O)OC(C)C)N2C(=O)[C@@H](NC(=O)/C(=N\OC)c3csc(N)n3)[C@H]2SC1 (some centres not stated) = 0.797 µM
• O=C(Nc1nc(N2C(=O)c3ccccc3C2=O)n(-c2ccccc2)n1)c1ccc(Cl)cc1 = 10.3 µM

Entry COc1cccc(N2C(N)=NC(N)=NC2(C)C)c1 , EC50 reported as 0.318 µM

The reported EC50 of the compound COc1ccc(-c2csc(NC(=O)c3ccc(C(C)(C)C)cc3)c2C(=O)O)cc1 was 1.21 µM

Measured EC50, C/C(=N\NC(=O)c1cc2ccccc2cc1O)c1cccs1 : 12.5 µM

For record CC(C)C(=O)Nc1ccc(C(=O)N/N=C/c2cc(Br)cc(Br)c2O)cc1 the listed EC50 is 1.36 µM

Measured EC50, COc1cccc(N2C(=O)C3NN=C(C(=O)CN4C(=O)c5ccccc5C4=O)C3C2=O)c1 (configuration not stated) : > 15 µM (inactive)

Cc1cc(C)nc(NC(N)=NCCc2c[nH]c3ccccc23)n1 yielded EC50 of 11.6 µM

So, COc1ccc(CCNC(=O)c2cc(-c3ccc(Cl)c(Cl)c3)oc2C)cc1 ? Its EC50 was 12.2 µM

Form: compound = CCOC(=O)/C(=N/Nc1ccccc1)c1csc(Nc2ccccc2)n1 ; EC50 = 3.22 µM
